experimental-target: Cytochrome P450 1A2 (Homo sapiens);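 note: PubChem cytochrome P450 panel assay, CYP1A2 panel member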
Sequence (P05177 whole entry): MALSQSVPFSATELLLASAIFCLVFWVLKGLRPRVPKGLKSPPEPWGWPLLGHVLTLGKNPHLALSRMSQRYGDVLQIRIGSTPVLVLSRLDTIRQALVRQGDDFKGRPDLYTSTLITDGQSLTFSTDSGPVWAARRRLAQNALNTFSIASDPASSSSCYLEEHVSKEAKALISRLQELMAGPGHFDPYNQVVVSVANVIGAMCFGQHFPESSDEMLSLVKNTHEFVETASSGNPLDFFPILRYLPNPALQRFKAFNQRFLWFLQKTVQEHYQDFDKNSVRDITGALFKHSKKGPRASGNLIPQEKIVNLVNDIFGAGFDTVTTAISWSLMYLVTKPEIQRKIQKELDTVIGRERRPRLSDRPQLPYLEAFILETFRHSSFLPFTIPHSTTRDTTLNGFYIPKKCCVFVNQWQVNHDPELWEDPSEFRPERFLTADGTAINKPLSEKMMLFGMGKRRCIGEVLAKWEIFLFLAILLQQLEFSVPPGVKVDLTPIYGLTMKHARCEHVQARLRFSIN
I'd be grateful if you could share measured AC50 for these entries.

In: Requested read-out: AC50. Entry: CCNc1ncc2nc(-c3ccc(OC)cc3)c(=O)n(Cc3cccc(OC)c3)c2n1
Out: 15.8 µM (inconclusive)

In: // repeat for Cc1cccc(CNc2ncncc2-c2ccc(C(=O)N(C)C)cc2)c1 and report
Out: 15.8 µM (inconclusive)

In: Next record, please: N#Cc1cccc(NC(=O)N2CCCC3(CCN(C(=O)c4cnccn4)CC3)C2)c1
Out: 20 µM (inconclusive)

In: Also, CC(C)(C)c1ccc(NS(=O)(=O)c2ccc(N)cc2)cc1 please.
Out: 3.16 µM (inconclusive)

In: Let us now turn to Cn1cccc1C(=O)N1CCC2(CC1)CCN(c1cccc(-c3ccccc3)c1)CC2
Out: 20 µM (inconclusive)

In: Next: Cc1sc2nc(SCc3nc(-c4cccs4)no3)n(-c3ccccc3)c(=O)c2c1C
Out: 14.1 µM (inconclusive)

In: Please give the result for O=C(O)c1cccc(SSc2cccc(C(=O)O)c2)c1 too.
Out: 5.01 µM (inconclusive)

In: Proceed to CC(C)n1c(N2CCN(C(=O)Nc3ccccc3)CC2)nc2ccccc21
Out: 25.1 µM (inconclusive)

###

Kindly state EC50 for each of the entries shown.
experimental-target: Short transient receptor potential channel 4 (Mus musculus)
Sequence (Q9QUQ5 whole entry): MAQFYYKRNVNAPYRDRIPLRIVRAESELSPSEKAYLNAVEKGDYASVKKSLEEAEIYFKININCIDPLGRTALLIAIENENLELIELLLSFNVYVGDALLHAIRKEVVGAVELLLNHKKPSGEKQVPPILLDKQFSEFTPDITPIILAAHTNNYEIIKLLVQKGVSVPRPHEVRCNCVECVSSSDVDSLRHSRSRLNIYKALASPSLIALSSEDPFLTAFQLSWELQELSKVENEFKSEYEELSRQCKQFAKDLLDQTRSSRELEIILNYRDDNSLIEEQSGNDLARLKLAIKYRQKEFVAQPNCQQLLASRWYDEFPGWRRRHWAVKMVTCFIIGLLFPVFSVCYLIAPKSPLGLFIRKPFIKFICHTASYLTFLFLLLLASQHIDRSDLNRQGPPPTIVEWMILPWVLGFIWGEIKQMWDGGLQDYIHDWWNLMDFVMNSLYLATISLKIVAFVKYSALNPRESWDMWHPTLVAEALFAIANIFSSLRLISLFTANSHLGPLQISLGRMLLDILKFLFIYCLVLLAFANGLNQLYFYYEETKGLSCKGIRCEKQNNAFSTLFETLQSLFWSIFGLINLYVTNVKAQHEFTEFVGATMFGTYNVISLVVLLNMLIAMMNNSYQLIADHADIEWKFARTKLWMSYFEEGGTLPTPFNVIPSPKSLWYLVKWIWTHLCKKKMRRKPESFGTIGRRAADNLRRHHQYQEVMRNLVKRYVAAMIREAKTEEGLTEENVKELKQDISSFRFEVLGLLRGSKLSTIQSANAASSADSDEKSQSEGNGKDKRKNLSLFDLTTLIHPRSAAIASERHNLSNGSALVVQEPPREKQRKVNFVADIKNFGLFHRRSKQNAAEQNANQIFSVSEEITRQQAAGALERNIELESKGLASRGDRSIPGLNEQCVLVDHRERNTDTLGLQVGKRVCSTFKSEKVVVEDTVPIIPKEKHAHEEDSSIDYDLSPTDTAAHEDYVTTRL
procedure-details: calcium entry via TRPC4 opening agents – cell-based, HEK293 TRPC4/mu-opioid, Fluo-4 calcium, dose response (AID 434937)
Assay type: functional
Activity calls are given as the source filed them.

In: Quick one: EC50 of COc1c(C)cc(C(=O)C2CCCN(Cc3cccc4nccnc34)C2)cc1C (stereo not given) ?
Out: 3.35 µM (active)

In: Similarly, COc1ccc2[nH]c(SCCN(C)C)nc2c1 ?
Out: 0.149 µM (active)

In: How about this compound: CC(C)C1CC(CCNCc2ccc(N(C)C)cc2)(c2ccccc2)CCO1 (stereo not given)
Out: 6.68 µM (active)

In: Another compound to check: Fc1cccc(C2NCCc3[nH]cnc32)c1 (stereo not given)
Out: 3.76 µM (active)

In: And what about the compound N=c1n(Cc2ccccc2)c2ccccc2n1CC(O)COc1ccccc1 (stereo not given) ?
Out: 0.267 µM (active)

###

experimental-target: Peroxisome proliferator-activated receptor gamma/Nuclear receptor coactivator 1 (Homo sapiens)
Sequence (P37231 whole entry): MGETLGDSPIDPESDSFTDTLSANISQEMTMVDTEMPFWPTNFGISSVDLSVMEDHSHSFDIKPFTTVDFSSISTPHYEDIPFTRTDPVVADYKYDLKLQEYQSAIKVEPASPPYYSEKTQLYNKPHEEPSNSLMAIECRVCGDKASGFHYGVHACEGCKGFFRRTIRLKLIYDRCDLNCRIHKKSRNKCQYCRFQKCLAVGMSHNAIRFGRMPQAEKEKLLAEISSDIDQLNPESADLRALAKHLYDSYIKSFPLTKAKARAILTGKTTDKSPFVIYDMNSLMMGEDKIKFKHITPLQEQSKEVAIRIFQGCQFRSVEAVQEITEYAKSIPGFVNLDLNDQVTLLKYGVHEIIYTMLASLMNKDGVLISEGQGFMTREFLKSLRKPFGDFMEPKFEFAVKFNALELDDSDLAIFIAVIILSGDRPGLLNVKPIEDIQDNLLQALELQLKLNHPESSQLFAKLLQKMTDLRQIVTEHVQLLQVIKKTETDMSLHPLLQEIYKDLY
Sequence (Q15788 whole entry, further chain): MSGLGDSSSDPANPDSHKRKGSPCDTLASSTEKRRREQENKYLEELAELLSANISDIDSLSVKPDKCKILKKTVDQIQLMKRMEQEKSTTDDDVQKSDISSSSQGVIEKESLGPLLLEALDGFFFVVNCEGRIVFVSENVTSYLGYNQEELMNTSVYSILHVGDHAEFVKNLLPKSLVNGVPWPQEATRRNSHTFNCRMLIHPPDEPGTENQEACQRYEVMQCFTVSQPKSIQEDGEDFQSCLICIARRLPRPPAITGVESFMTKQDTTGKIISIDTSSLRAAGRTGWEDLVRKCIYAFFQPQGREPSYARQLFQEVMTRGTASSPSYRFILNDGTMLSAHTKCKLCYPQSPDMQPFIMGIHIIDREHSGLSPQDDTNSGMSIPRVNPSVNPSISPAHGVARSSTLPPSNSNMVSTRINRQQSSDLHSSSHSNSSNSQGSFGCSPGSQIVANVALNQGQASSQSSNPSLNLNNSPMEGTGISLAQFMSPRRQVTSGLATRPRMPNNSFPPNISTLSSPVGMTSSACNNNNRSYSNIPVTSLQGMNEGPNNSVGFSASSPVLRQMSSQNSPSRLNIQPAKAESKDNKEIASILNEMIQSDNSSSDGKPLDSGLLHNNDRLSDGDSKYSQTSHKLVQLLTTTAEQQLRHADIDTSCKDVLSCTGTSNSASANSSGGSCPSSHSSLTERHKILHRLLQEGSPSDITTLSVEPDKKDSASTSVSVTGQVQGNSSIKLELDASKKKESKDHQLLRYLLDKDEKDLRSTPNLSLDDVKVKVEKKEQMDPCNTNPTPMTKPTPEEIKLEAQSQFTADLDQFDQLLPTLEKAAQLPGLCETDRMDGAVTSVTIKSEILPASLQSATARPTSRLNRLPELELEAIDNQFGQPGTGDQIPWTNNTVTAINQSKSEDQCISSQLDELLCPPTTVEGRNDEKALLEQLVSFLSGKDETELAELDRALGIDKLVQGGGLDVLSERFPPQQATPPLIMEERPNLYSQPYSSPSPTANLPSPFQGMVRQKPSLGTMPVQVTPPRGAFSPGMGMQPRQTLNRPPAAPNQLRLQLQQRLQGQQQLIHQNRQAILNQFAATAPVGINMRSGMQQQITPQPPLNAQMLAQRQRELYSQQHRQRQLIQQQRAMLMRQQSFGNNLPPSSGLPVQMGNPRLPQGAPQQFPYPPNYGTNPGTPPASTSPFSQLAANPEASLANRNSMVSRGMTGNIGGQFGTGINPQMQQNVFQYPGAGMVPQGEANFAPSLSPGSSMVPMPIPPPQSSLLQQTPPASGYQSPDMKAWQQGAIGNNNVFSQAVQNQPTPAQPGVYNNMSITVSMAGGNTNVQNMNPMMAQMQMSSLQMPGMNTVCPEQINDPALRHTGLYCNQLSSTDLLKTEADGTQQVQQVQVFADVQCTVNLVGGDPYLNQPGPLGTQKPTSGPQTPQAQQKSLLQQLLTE
procedure-details: TR-FRET dose response biochemical High Throughput Screening assay for agonists of the steroid receptor coactivator 1 (SRC-1) recruitment by the peroxisome proliferator-activated receptor gamma (PPAR gamma): non-selective agonists. [Related pubchem assays (depositor defined):AID1300, AID1808, AID504735, AID631]
Format: protein assay
Calls of active or inactive are those of the source.
Answer with one of the outcomes active, inactive

In: I would be grateful if you could indicate the recorded call for Sc1nnc(-c2ccccn2)n1/N=C/c1ccc(-c2ccccc2Br)o1 .
Out: active

In: Can you check Sc1nnc(-c2cc(-c3ccco3)[nH]n2)n1-c1ccccc1 next?
Out: inactive

In: Further, for CCSc1cnn(-c2ccccc2)c(=O)c1SCC ?
Out: inactive

In: How about this molecule: COc1cccc(C2C(C(=O)c3ccc(OC)c(OC)c3)=C(O)C(=O)N2c2cc(C)on2)c1 (centres undefined)
Out: inactive

###

experimental-target: Sentrin-specific protease 7 (Homo sapiens, UniProt Q9BQF6)
Sequence (Q9BQF6 whole entry): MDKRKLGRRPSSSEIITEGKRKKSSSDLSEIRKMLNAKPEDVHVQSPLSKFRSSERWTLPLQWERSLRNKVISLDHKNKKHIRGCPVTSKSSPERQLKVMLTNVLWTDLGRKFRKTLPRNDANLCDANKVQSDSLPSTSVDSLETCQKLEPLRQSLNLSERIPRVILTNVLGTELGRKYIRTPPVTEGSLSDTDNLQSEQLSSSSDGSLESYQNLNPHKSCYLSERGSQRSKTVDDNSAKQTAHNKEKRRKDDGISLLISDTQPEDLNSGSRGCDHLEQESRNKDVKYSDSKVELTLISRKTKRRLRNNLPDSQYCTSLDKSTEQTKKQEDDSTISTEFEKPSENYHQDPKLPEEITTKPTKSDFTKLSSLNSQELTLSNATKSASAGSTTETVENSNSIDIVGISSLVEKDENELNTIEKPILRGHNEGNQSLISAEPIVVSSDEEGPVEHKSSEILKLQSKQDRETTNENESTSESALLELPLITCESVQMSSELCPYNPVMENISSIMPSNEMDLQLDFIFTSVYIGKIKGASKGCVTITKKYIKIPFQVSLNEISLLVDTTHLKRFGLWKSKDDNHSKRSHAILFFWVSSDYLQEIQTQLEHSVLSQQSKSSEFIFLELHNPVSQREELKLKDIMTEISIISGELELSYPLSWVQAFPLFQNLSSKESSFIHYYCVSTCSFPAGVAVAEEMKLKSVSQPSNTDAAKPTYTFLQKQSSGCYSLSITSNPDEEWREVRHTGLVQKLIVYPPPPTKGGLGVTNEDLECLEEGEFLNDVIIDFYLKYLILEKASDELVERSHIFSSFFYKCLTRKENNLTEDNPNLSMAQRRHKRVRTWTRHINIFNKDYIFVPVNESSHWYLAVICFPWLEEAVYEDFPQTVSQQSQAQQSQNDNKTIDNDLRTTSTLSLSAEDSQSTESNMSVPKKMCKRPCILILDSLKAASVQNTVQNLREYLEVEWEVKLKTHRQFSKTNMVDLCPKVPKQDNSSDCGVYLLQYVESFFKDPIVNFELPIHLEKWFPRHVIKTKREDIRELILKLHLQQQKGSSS
procedure-details: inhibition of human SENP7 cleavage activity – biochemical, luminescence, SAR follow-up (AID 504497)
Assay type: functional
Activity calls are given as the source filed them.
parameter: IC50

In: Sample Fc1ccc(COc2ccc(C(=S)N3CCCC3)cc2)cc1 — what was its IC50?
Out: 2.16 µM (active)

In: Next record, please: COc1ccc(C2C(C#N)=C(N)Oc3c2c(C)nn3-c2ccccc2)cc1 (centres undefined)
Out: 63 µM (active)

In: Repeat for the following compound: C(=C\c1nc(-c2ccc(N3CCOCC3)cc2)no1)/c1ccccc1
Out: > 99 µM (inactive)

In: Can you check Cc1ccsc1C(=O)Nc1nc2ccc(Cl)cc2s1 next?
Out: 0.75 µM (active)

###

experimental-target: Replicative DNA helicase DnaB (Mycobacterium tuberculosis, UniProt P9WMR3)
Sequence (P9WMR3 1-399, added parts left off): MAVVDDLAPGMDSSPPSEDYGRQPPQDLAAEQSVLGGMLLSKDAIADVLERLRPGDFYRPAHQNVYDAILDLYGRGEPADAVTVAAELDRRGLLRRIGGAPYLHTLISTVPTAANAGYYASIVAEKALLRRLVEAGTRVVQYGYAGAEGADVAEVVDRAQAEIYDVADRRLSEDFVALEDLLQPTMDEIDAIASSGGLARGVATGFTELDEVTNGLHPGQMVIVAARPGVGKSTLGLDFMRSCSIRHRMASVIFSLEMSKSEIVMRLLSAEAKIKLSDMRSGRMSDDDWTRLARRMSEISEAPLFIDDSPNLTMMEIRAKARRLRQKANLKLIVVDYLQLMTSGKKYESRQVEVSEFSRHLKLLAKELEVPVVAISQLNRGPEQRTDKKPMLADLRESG
procedure-details: DnaB intein splicing inhibitors, dose response, biochemical, cell-free fluorescence (AID 449749)
Format: functional
The source made the active and inactive calls.
Hi! Could you answer with just one of these? Y = active, N = inactive

In: How did this test come out for CC1CC(C)CN(C(=O)c2ccc3c(c2NCCO)C(=O)c2ccccc2C3=O)C1 (stereo not given) ?
Out: Y

In: // repeat for CCCc1n[nH]c2c1C(c1ccc(OC)c(Cn3nnc4ccccc43)c1)C(C#N)=C(N)O2 (stereo not given) and report
Out: Y

In: And then Cc1ccc(Nc2cc(C)nc3c(C)ccc([N+](=O)[O-])c23)cc1 , what is it?
Out: N

In: Continue with Nc1c(-c2ccccc2)c(CSc2nc3ccccc3[nH]2)nn1-c1cccc(Cl)c1
Out: Y

In: Also CC1=NN(Cc2ccccc2)C(=O)C1 ?
Out: Y

In: And the next one, N#C/C(=C/c1ccc2c(c1)OCO2)C(=O)Nc1ccc(O)cc1 ?
Out: Y

In: Cool, now CS(=O)(=O)c1ccc(C(=O)OCc2nnc(-c3ccc(Cl)cc3)o2)cc1[N+](=O)[O-]
Out: Y

In: O=C(NCc1ccccc1)c1nc(S(=O)(=O)Cc2ccccc2)ncc1Cl ?
Out: Y

In: Also need CSCCC1C(C#N)=C(N)Oc2[nH]nc(-c3cccs3)c21 (stereo not given) , thanks.
Out: Y

###

experimental-target: Sentrin-specific protease 6 (Homo sapiens);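 note: Luminescence-based dose-response confirmatory assay of SENP6 inhibition, following up an ultra-high-throughput screen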
Sequence (Q9GZR1 whole entry): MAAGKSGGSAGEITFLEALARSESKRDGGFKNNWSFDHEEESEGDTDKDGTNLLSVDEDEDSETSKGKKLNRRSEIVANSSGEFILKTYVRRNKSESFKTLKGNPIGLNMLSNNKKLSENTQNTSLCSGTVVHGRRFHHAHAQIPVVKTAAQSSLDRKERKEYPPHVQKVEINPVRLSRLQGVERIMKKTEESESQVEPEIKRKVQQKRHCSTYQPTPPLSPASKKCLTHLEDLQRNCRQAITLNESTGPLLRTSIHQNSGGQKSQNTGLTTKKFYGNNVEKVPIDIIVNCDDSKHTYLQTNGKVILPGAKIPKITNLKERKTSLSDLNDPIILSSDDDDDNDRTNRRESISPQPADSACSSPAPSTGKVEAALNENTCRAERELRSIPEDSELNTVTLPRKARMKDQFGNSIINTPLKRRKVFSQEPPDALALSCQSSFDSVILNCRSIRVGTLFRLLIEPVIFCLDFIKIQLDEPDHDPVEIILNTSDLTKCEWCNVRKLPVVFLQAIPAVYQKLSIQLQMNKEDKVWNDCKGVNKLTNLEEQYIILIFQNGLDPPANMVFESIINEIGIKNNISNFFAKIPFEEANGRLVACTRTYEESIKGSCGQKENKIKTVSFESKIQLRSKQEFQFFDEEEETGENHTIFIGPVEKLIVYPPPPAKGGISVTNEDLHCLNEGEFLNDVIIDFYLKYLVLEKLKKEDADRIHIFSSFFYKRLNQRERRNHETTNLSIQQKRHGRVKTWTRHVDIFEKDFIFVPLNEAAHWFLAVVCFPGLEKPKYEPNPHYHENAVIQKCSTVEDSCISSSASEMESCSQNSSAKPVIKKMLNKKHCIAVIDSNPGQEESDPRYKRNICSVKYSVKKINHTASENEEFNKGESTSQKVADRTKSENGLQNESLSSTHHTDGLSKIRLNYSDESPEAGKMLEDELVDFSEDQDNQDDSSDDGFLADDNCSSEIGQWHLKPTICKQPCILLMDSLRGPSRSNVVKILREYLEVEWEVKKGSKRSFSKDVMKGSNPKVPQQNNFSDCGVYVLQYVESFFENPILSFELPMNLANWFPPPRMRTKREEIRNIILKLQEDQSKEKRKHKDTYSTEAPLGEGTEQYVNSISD
Format: functional
Active and inactive are the calls of the source.
Please go through the items and note down their IC50.

In: Bench note: what IC50 did Fc1ccc(COc2ccc(C(=S)N3CCCC3)cc2)cc1 show?
Out: 8.99 µM (active)

In: Same lookup for CCC(=O)N(C1=C(NC)C(=O)c2ccccc2C1=O)C(C)C , please.
Out: 16.7 µM (active)

In: Moving on to the next compound: Cc1[nH]n(C(N)=S)c(=O)c1/N=N/c1ccccc1C(F)(F)F
Out: 18.9 µM (active)

In: Lookup CCO/C=C1/C(=O)N(c2ccc(OC)cc2)C(=O)c2ccccc21
Out: 8.55 µM (active)

In: Another compound to look at: Nc1nc(-c2ccccc2)nc2sc3c(c12)CCCC3
Out: 10 µM (active)

In: // query: c1ccc(Nc2ncnc3c2oc2ccccc23)cc1
Out: > 100 µM (inactive)

In: Another compound to check: O=[N+]([O-])c1cccnc1NCCNc1ncc(C(F)(F)F)cc1Cl
Out: 19.1 µM (active)
